Where a name gives a salt, the structure may show the parent alone.
This section lists Compound Myofibroblast Cytotoxicity Activity readings for hDMFa myofibroblast cells.

- Compound: "CC(=O)OCC(CCn1cnc2cnc(N)nc21)COC(C)=O"
  Reading: "+++"
- Compound: "O=C(O)c1cn(C2CC2)c2cc(N3CCNCC3)c(F)cc2c1=O [Cmpd 268, Ciprofloxacin (hydrochloride)]"
  Reading: "++"
- Compound: "O=S(=O)([O-])CCCS(=O)(=O)[O-].[Na+].[Na+] [Cmpd 423, Eprodisate disodium]"
  Reading: "++"
- Compound: "Nc1ncnc2c1ncn2[C@@H]1O[C@H](COP(=O)(O)OP(=O)(O)O)[C@@H](O)[C@H]1O"
  Reading: "++"
- Compound: "CC1(COc2ccc3c(c2)ncn3-c2ccc3cccc(N4CCC(N)CC4)c3n2)COC1"
  Reading: "+++++"
- Compound: "COc1cc(/C=C/C(=O)O)ccc1O"
  Reading: "++"

Could you tell me which Compound Myofibroblast Cytotoxicity Activity is on file for Nc1nc(=O)c2c([nH]1)NCC(CNc1ccc(C(=O)N[C@@H](CCC(=O)[O-])C(=O)[O-])cc1)N2C=O.[Ca+2] (stereo partly shown) [Cmpd 468, Folinic Acid (calcium salt)] ? +++

###

# hDMFa myofibroblast cells: Compound Myofibroblast Cytotoxicity Activity values follow

Below, 5 molecules whose answers are already recorded.
- Molecule: "CC1=CC(=O)[C@H]2C[C@@H]1C2(C)C [Cmpd 20, (1S)-(−)-Verbenone]"
  Reading: "++"
- Molecule: "O=C1CC[C@@H](C(=O)O)N1"
  Reading: "++++"
- Molecule: "CC(C)(c1ccc(O)cc1)c1ccc(O)cc1"
  Reading: "++"
- Molecule: "CC1Cc2ccccc2N1NC(=O)c1ccc(Cl)c(S(N)(=O)=O)c1 (stereo not shown) [Cmpd 527, Indapamide]"
  Reading: "+++"
- Molecule: "Cc1cc(-c2ccc(/N=N/c3ccc4c(S(=O)(=O)[O-])cc(S(=O)(=O)[O-])c(N)c4c3O)c(C)c2)ccc1/N=N/c1ccc2c(S(=O)(=O)[O-])cc(S(=O)(=O)[O-])c(N)c2c1O.[Na+].[Na+].[Na+].[Na+] [Cmpd 445, Evans Blue tetrasodium salt]"
  Reading: "++"

Observed Compound Myofibroblast Cytotoxicity Activity on hDMFa myofibroblast cells for O=C(O)c1ccccc1C(=O)O , please. ++

Kindly state the measured Compound Myofibroblast Cytotoxicity Activity obtained for COc1ccc2cc([C@H](C)C(=O)O)ccc2c1 [Cmpd 32, (S)-Naproxen] with hDMFa myofibroblast cells. ++

###

# System: hDMFa myofibroblast cells
Structures can show the parent of a compound that is named as a salt.
Parameter measured: Compound Myofibroblast Cytotoxicity Activity

// known answers, use as guide
- Molecule: "COC(=O)C1=C(C)NC(C)=C(C(=O)OCCN(C)Cc2ccccc2)C1c1cccc([N+](=O)[O-])c1 (centres unmarked) [Cmpd 706, Nicardipine HCl]"
  Reading: "+++"
- Molecule: "O=C1NC(=O)C(c2ccccc2)(c2ccccc2)N1 [Cmpd 778, Phenytoin sodium]"
  Reading: "++"
- Molecule: "O=C(O)c1ccncc1"
  Reading: "++++"
- Molecule: "COC(=O)N[C@H](C(=O)N[C@@H](Cc1ccccc1)[C@@H](O)CN(Cc1ccc(-c2ccccn2)cc1)NC(=O)[C@@H](NC(=O)OC)C(C)(C)C)C(C)(C)C"
  Reading: "++"
- Molecule: "C[n+]1cc2c3c(ccc2c2ccc4cc5c(cc4c21)OCO5)OCO3 [Cmpd 850, Sanguinarine]"
  Reading: "+++++"

Record lookup: for hDMFa myofibroblast cells, what Compound Myofibroblast Cytotoxicity Activity belongs to CN(CC(=O)O)C(=N)N.O [Cmpd 295, Creatine monohydrate] ? ++

Please tell me: Compound Myofibroblast Cytotoxicity Activity of CO/N=C(\C(=O)N[C@@H]1C(=O)N2C(C(=O)OC(C)OC(C)=O)=C(COC(N)=O)CS[C@H]12)c1ccco1 (some centres unmarked) , system hDMFa myofibroblast cells? ++

Form field: Compound Myofibroblast Cytotoxicity Activity recorded for O=C(O)CC(=O)O with hDMFa myofibroblast cells (enter value) ++++

Provide value of Compound Myofibroblast Cytotoxicity Activity for this record tested with hDMFa myofibroblast cells: COc1ccc2cc1Oc1ccc(cc1)C[C@H]1c3c(cc4c(c3Oc3cc5c(cc3OC)CCN(C)[C@@H]5C2)OCO4)CCN1C ++

Requested read-out Compound Myofibroblast Cytotoxicity Activity, target or system hDMFa myofibroblast cells, entry CC1=NN(c2ccc(C)c(C)c2)C(=O)/C1=N\Nc1cccc(-c2cccc(C(=O)O)c2)c1O ++

###

Counter-ions that a name gives are not always drawn.
hDMFa myofibroblast cells measurements of Compound Myofibroblast Cytotoxicity Activity, listed per entry.

Observe how each entry below is paired with its result.
- Compound: "CN(C)CCCN1c2ccccc2CCc2ccccc21 [Cmpd 523, Imipramine (hydrochloride)]"
  Tested on: "hDMFa myofibroblast cells"
  Reading: "+++"
- Compound: "Cc1cn([C@H]2C[C@H](O)[C@@H](CO)O2)c(=O)[nH]c1=O"
  Tested on: "hDMFa myofibroblast cells"
  Reading: "++"
- Compound: "O=C1OC2(c3ccc(O)cc3Oc3cc(O)ccc32)c2ccccc21"
  Tested on: "hDMFa myofibroblast cells"
  Reading: "++"
- Compound: "C=C1C(=O)O[C@@H]2C[C@@]3(C)CCC[C@H](C)C3=C[C@H]12"
  Tested on: "hDMFa myofibroblast cells"
  Reading: "++++"
- Compound: "Nc1cccc2c1C(=O)N(C1CCC(=O)NC1=O)C2=O (centres unmarked) [Cmpd 789, Pomalidomide (CC-4047)]"
  Tested on: "hDMFa myofibroblast cells"
  Reading: "++"
- Compound: "CC(C)c1c(C(=O)Nc2ccccc2)c(-c2ccccc2)c(-c2ccc(F)cc2)n1CC[C@@H](O)C[C@@H](O)CC(=O)[O-].CC(C)c1c(C(=O)Nc2ccccc2)c(-c2ccccc2)c(-c2ccc(F)cc2)n1CC[C@@H](O)C[C@@H](O)CC(=O)[O-].[Ca+2]"
  Tested on: "hDMFa myofibroblast cells"
  Reading: "++++"
- Compound: "N[C@@H](CCC(=O)O)C(=O)[O-].[Na+] [Cmpd 584, L-Glutamic acid monosodium salt]"
  Tested on: "hDMFa myofibroblast cells"
  Reading: "++"
- Compound: "CC=CC(=O)N(CC)c1ccccc1C"
  Tested on: "hDMFa myofibroblast cells"
  Reading: "++"

For Cc1c(Cl)cccc1Nc1ccccc1C(=O)O , what is its reported Compound Myofibroblast Cytotoxicity Activity? ++

Given Cc1ccc(S(=O)(=O)/C=C/C#N)cc1 , state its recorded Compound Myofibroblast Cytotoxicity Activity. +++++

Requested field: Compound Myofibroblast Cytotoxicity Activity. Item: Cc1coc2c1C(=O)C(=O)c1c-2ccc2c(C)cccc12 +++++

###

Let's go through some Compound Myofibroblast Cytotoxicity Activity measurements on hDMFa myofibroblast cells together.

The examples below pair each entry with its known result.
- Compound: "CCCCCCCCCCCCCCO"
  Reading: "+"
- Compound: "CC(=O)Oc1ccccc1C(=O)Nc1ncc([N+](=O)[O-])s1 [Cmpd 718, Nitazoxanide]"
  Reading: "+++"
- Compound: "O=C(/C=C/c1ccc(O)c(O)c1)OCCc1ccccc1"
  Reading: "++"
- Compound: "OC[C@H]1O[C@H](OC[C@H]2O[C@H](O[C@]3(CO)O[C@H](CO)[C@@H](O)[C@@H]3O)[C@H](O)[C@@H](O)[C@@H]2O)[C@H](O)[C@@H](O)[C@H]1O [Cmpd 308, D-(+)-Raffinose (hydrate)]"
  Reading: "++"
- Compound: "CC(=O)SCC(Cc1ccccc1)C(=O)NCC(=O)OCc1ccccc1 (stereo not shown)"
  Reading: "++"

Can you look up Compound Myofibroblast Cytotoxicity Activity on hDMFa myofibroblast cells for CC(=O)c1ccccc1 ? ++

API: value(readout=Compound Myofibroblast Cytotoxicity Activity, system=hDMFa myofibroblast cells) for record C[C@H]1O[C@@H](O[C@H]2CC[C@@]3(C)[C@@H](CC[C@]4(C)[C@@H]3C=C[C@]35OC[C@@]6(CCC(C)(C)C[C@H]63)[C@@H](O)C[C@]54C)[C@]2(C)CO)[C@H](O)[C@@H](O[C@@H]2O[C@H](CO)[C@@H](O)[C@H](O)[C@H]2O)[C@H]1O +++++

###

Counter-ions that a name gives are not always drawn. Where a SMILES comes first, the peptide text is derived from it. Bridges are numbered along the chain shown (N, C = ends). [ ]: non-standard residue; d: D form. hArg = N=C(N)NCCCC[C@H](N)C(=O)O; Mpa = O=C(O)CCS
Recorded Compound Myofibroblast Cytotoxicity Activity values (hDMFa myofibroblast cells) are given below.

Examples from the recorded data:
- Molecule: "CCOC(=O)C1=C(C)NC(C)=C(C(=O)OC)C1c1cccc([N+](=O)[O-])c1 (stereo not drawn) [Cmpd 719, Nitrendipine]"
  Reading: "+++"
- Molecule: "O=c1c(-n2ccnn2)c[nH]n1-c1cc(N2CCOCC2)ncn1 [Cmpd 687, Molidustat (BAY85-3934)]"
  Reading: "+++"
- Molecule: "O=C(c1ccc(F)c(F)c1Nc1ccc(I)cc1F)N1CC(O)([C@@H]2CCCCN2)C1 [Cmpd 290, Cobimetinib]"
  Reading: "++++"
- Molecule: "CCOC(=O)C1=C(COCCN)NC(C)=C(C(=O)OC)C1c1ccccc1Cl (stereo not drawn) [Cmpd 110, Amlodipine]"
  Reading: "+++"
- Molecule: "COc1ccc2cc1Oc1ccc(cc1)C[C@H]1c3cc(c(OC)cc3CCN1C)Oc1c(OC)c(OC)cc3c1[C@H](C2)N(C)CC3 [Cmpd 936, Tetrandrine]"
  Reading: "++"
- Molecule: "Oc1ccccc1O [Cmpd 810, Pyrocatechol]"
  Reading: "++"
- Molecule: "[H]/N=C(\\N/C(=N/[H])NCCCCCCNC(=N)NC(=N)Nc1ccc(Cl)cc1)Nc1ccc(Cl)cc1 [Cmpd 249, Chlorhexidine HCl]"
  Reading: "+++++"
- Molecule: "N=C(N)NCCCC[C@@H]1NC(=O)CCSSC[C@@H](C(N)=O)NC(=O)[C@@H]2CCCN2C(=O)[C@H](Cc2c[nH]c3ccccc23)NC(=O)[C@H](CC(=O)O)NC(=O)CNC1=O [Cmpd 424, Eptifibatide Acetate] ([Mpa][hArg]GDWPC-NH2; disulfide 1-7)"
  Reading: "++"
- Molecule: "CC(=O)N[C@@H](CS)C(=O)O [Cmpd 695, N-Acetyl-L-cysteine]"
  Reading: "+"
- Molecule: "CC(Cc1ccc(O)c(O)c1)C(C)Cc1ccc(O)c(O)c1 (stereo not drawn) [Cmpd 722, Nordihydroguaiaretic acid]"
  Reading: "+++"

Short answer please: Compound Myofibroblast Cytotoxicity Activity, hDMFa myofibroblast cells, entry CN(C(=O)CN(CCO)CC(=O)N(C)C(C)(C)Cc1ccccc1)C(C)(C)Cc1ccccc1 [Cmpd 745, Oxethazaine] +++++
